# System: S. aureus ATCC 13709
# Method: MIC, S. aureus ATCC 13709
# Type: cell-based
# Settings: Staphylococcus aureus, ATCC13709, S. aureus; Alamar Blue read after overnight incubation at 35° C.; read-out: MIC Sa
compounds and their reported MIC

[
  {
    "Compound": "Cc1ncc(Oc2nc(N3C[C@H](N)C4(CC4)C3)c3c(n2)[nH]c2c(N(C)C(=O)CN)cc(F)cc23)cn1",
    "MIC": "8 µg/mL"
  },
  {
    "Compound": "CNc1cccc2c1[nH]c1nc(Oc3cnc(N)nc3)cc(N3CC4C(N)C4C3)c12 (stereo not shown)",
    "MIC": "≤ 0.5 µg/mL"
  },
  {
    "Compound": "CNc1cc(F)cc2c1[nH]c1nc(Oc3cnc(CCO)nc3)nc(N3CC4CC3C[C@@H]4N)c12 (stereo partly shown)",
    "MIC": "≤ 0.5 µg/mL"
  },
  {
    "Compound": "CNc1cccc2c1[nH]c1nc(Oc3cncnc3)cc(N3CC(F)[C@@H](N)C3)c12 (stereo partly shown)",
    "MIC": "≤ 0.5 µg/mL"
  },
  {
    "Compound": "CNc1cccc2c1[nH]c1nc(Sc3cncnc3)nc(N3CC4C(N)C4C3)c12 (stereo not shown)",
    "MIC": "2 µg/mL"
  },
  {
    "Compound": "CNc1cccc2c1[nH]c1nc(Oc3cnc(C)nc3)cc(N3CC4C(C3)C4NCCC#N)c12 (stereo not shown)",
    "MIC": "≤ 0.5 µg/mL"
  },
  {
    "Compound": "CNc1cccc2c1[nH]c1nc(Sc3cnc4cccnc4c3)nc(N3CC4C(C3)C4(N)CO)c12 (stereo not shown)",
    "MIC": "16 µg/mL"
  },
  {
    "Compound": "CNc1ncnc2c1[nH]c1nc(Oc3cnc(C)nc3)nc(N3CCC(CN)C3)c12 (stereo not shown)",
    "MIC": "> 64 µg/mL"
  },
  {
    "Compound": "CNc1cccc2c1[nH]c1nc(Oc3cnc(C)nc3)cc(N3C[C@@H](NC)C4(CC4)C3)c12",
    "MIC": "2 µg/mL"
  },
  {
    "Compound": "CNc1nccc2c1[nH]c1nc(Oc3cncnc3)nc(N3CC[C@@H](N)C3)c12",
    "MIC": "> 64 µg/mL"
  },
  {
    "Compound": "CNc1ncnc2c1[nH]c1nc(Oc3cncnc3)nc(Oc3cncnc3)c12",
    "MIC": "> 64 µg/mL"
  },
  {
    "Compound": "CNc1cccc2c1[nH]c1nc(Sc3cnc4cccnc4c3)nc(N3CC4CNC(C4)C3)c12 (stereo not shown)",
    "MIC": "≤ 0.5 µg/mL"
  },
  {
    "Compound": "CNc1cc(F)c(F)c2c1[nH]c1nc(Oc3cnc4c(c3)ncn4C3CC3)nc(N3C[C@H]4C[C@@H]3C[C@H]4N)c12",
    "MIC": "≤ 0.5 µg/mL"
  },
  {
    "Compound": "CNc1cccc2c1[nH]c1nc(Oc3cnc(C)nc3)cc(N3CC4C(N)C4C3)c12 (stereo not shown)",
    "MIC": "≤ 0.5 µg/mL"
  },
  {
    "Compound": "CNc1ncnc2c1[nH]c1nc(Oc3cncc(F)c3)nc(N3CC4C(N)C4C3)c12 (stereo not shown)",
    "MIC": "8 µg/mL"
  },
  {
    "Compound": "CNc1cccc2c1[nH]c1nc(Sc3cnc4cccnc4c3)nc(N3CCNCC3)c12",
    "MIC": "2 µg/mL"
  }
]
